B1: CPXM2 (parent)
chain: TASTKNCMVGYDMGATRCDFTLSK

- Variants of: B1
- test protocol: protein stability index of a GFP-peptide fusion (GPS, HEK-293T) (PSI 1-6); higher = more stable;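 also: lentivirally expressed fusions sorted by FACS into six bins by GFP to DsRed ratio, PSI derived from sequencing read proportions per bin multiplied by bin number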
- assay conditions: c terminus: a fixed tail appended
Given measured protein stability index, output 1 if it is greater than or equal to 2 and -1 if not.

| mutation string | class |
| --- | --- |
| A2W | -1 |
| C18K | 1 |
| D19G | -1 |
| G10S | 1 |
| R17E | 1 |
| T1S | 1 |

Does M13P have a reported protein stability index of at least 2? 1
